Numbers sourced from the METLIN SMRT retention time set (Domingo-Almenara et al. 2019).

# procedure-summary: gradient 5% acetonitrile 3 min, to 50% in 2 min, to 85% in 15 min, held 3 min, 100 µL/min
# experimental-setup: column: Zorbax Extend-C18 2.1 x 50 mm; eluents: water / acetonitrile, 0.1% formic acid
parameter-measured: RP-LC retention time (s)

[[record]]
structure = "Cc1nn(C)c2c(=O)n(CC(=O)NCc3ccc(Br)cc3)ccc12"
parameter_measured = "RP-LC retention time"
recorded_value = 745

[[record]]
structure = "CCCNC(=O)C1CCN(c2ccc(SCC(=O)Nc3ccccc3C)nn2)CC1"
parameter_measured = "RP-LC retention time"
recorded_value = 636

[[record]]
structure = "Cc1cc(N2CCOCC2)n2nc(-c3ccc(C(C)(C)C)cc3)nc2n1"
parameter_measured = "RP-LC retention time"
recorded_value = 960

[[record]]
structure = "N#Cc1nc(-c2ccc(COc3ccc(Cl)cc3)o2)oc1N1CCC(C(N)=O)CC1"
parameter_measured = "RP-LC retention time"
recorded_value = 806

[[record]]
structure = "CCN1CCn2cc(S(=O)(=O)NCc3cc(F)cc(F)c3)cc2C1=O"
parameter_measured = "RP-LC retention time"
recorded_value = 794


* * *

# procedure-summary: gradient 5% acetonitrile 3 min, to 50% in 2 min, to 85% in 15 min, held 3 min, 100 µL/min
# experimental-setup: column: Zorbax Extend-C18 2.1 x 50 mm; eluents: water / acetonitrile, 0.1% formic acid
parameter-measured: RP-LC retention time (s)

[[record]]
compound = "O=C(Nc1ccc2nc3n(c(=O)c2c1)CCC3)Nc1ccc(F)cc1F"
recorded_value = 686

[[record]]
compound = "CCc1nc(OCC(=O)Nc2ccccc2C(=O)OC)c2ccccc2n1"
recorded_value = 902

[[record]]
compound = "CCn1nccc1C(=O)N1CCCN(c2nnc3ccccn23)CC1"
recorded_value = 879

[[record]]
compound = "CCCCNC(=O)C1CCN(c2cc(N3CCCCC3)ncn2)CC1"
recorded_value = 642

[[record]]
compound = "Cc1ccc(-n2c(=O)c3sccc3n(Cc3nc(-c4cccc(Br)c4)no3)c2=O)cc1"
recorded_value = 1110

[[record]]
compound = "CCn1c(=O)c(N2CCC(NC(=O)NCCc3ccccc3)CC2)nc2ccccc21"
recorded_value = 882

[[record]]
compound = "Cc1cc(C)n(CCNC(=O)C(=O)Nc2cc(C)on2)n1"
recorded_value = 608

[[record]]
compound = "CCc1ccccc1NS(=O)(=O)c1cc(-c2c(CC)noc2NC(C)=O)ccc1C"
recorded_value = 855

[[record]]
compound = "O=C(CN1CCc2[nH]c3c(F)c(Cl)ccc3c(=O)c2C1)NCc1ccccc1F"
recorded_value = 664

[[record]]
compound = "CCC(CC)C(=O)Nc1nc(-c2ccc3c(c2)N(CC)C(=O)CO3)cs1"
recorded_value = 980

[[record]]
compound = "O=C(Nc1cccc(C(F)(F)F)c1)Nc1c(-c2ccncc2)nc2ccccn12"
recorded_value = 655

[[record]]
compound = "COc1cc2c(cc1OC)C1C(C(=O)NCCCN3CCN(C)CC3)c3ccccc3C(=O)N1CC2 (centres undefined)"
recorded_value = 547

[[record]]
compound = "CCOC(=O)c1cccc(Nc2c(-c3ccc(C)cc3)nc3cnccn23)c1"
recorded_value = 941

[[record]]
compound = "CCC(C(=O)Nc1cnn(-c2ncc(N(C)C)cn2)c1)c1ccccc1 (centres undefined)"
recorded_value = 811

[[record]]
compound = "O=C(NCc1ccccc1)C1CCN(C(=O)c2cc3ccsc3n2Cc2ccc(Cl)cc2)CC1"
recorded_value = 1060

[[record]]
compound = "Cn1c(=O)c2cc(C(=O)NCc3cc(F)ccc3F)nn2c2ccccc21"
recorded_value = 869

[[record]]
compound = "O=C(Nc1ccc2c(c1)OCCO2)Nc1ccc2nc3n(c(=O)c2c1)CCC3"
recorded_value = 654

[[record]]
compound = "CCc1ccc(NC(=O)Cn2ncc3c(c2=O)N(C2CC2)C(=O)CS3)cc1"
recorded_value = 797

[[record]]
compound = "Cc1ccccc1CC(=O)N1CCC2(CC1)NC(=O)c1ccc(F)cc1N2C"
recorded_value = 798

[[record]]
compound = "COCCCNC(=O)NC1CCN(c2nc3cccnc3n(Cc3ccccc3)c2=O)CC1"
recorded_value = 843

[[record]]
compound = "Cc1ccc(Nc2c(-c3ccc(N4CCOCC4)cc3)nc3ccc(C)cn23)cc1"
recorded_value = 739

[[record]]
compound = "CC(C)CCOc1cccc(OCC(=O)NCC(=O)O)c1"
recorded_value = 772

[[record]]
compound = "Cc1nc(-c2ccc(N3CCN(C(=O)c4cc(F)ccc4F)CC3)nc2)sc1C"
recorded_value = 890

[[record]]
compound = "COc1ccc(OC)c(NC(=O)c2ccc(S(=O)(=O)NC3CC3)cc2)c1"
recorded_value = 778

[[record]]
compound = "COc1ccc(NC(=O)CSc2nnc(CNC(=O)c3cccs3)o2)c(OC)c1"
recorded_value = 614

[[record]]
compound = "Cc1nn(-c2ccc(F)cc2)c(C)c1S(=O)(=O)N1CCC(C(=O)N2CCN(C)CC2)CC1"
recorded_value = 625

[[record]]
compound = "COc1cccc(C2Cn3nnc(-c4nc(-c5ccccc5C)no4)c3CO2)c1 (centres undefined)"
recorded_value = 1180

[[record]]
compound = "CCCCN(C)C(=O)C(C)n1nc(C)c2nn(-c3ccccc3)c(-n3cccc3)c2c1=O (centres undefined)"
recorded_value = 1010

[[record]]
compound = "CCCNc1cc(N2CCC(CCC(=O)NCCc3cccs3)CC2)ncn1"
recorded_value = 662

[[record]]
compound = "Cn1cccc(C(=O)Nc2nc3c(s2)CN(S(=O)(=O)C2CC2)CC3)c1=O"
recorded_value = 645

[[record]]
compound = "O=C(c1cccnc1)N1CC(n2cc(COCC3CC3)nn2)C1"
recorded_value = 597

[[record]]
compound = "O=C(NCc1cccc2ccccc12)C(=O)c1c[nH]c2ccccc12"
recorded_value = 1010

[[record]]
compound = "Cc1nnsc1C(=O)Nc1nnc(-c2ccnn2C)o1"
recorded_value = 665

[[record]]
compound = "Cn1c(C(=O)N2CCCc3ccccc32)cc2c(=O)oc3ccccc3c21"
recorded_value = 988

[[record]]
compound = "Cc1cccc(Sc2nccnc2N2CCCC(C(=O)N3CCN(c4ccccn4)CC3)C2)c1 (centres undefined)"
recorded_value = 761

[[record]]
compound = "CSc1cccc(NC(=O)N2CCCC(C)(C(=O)NCc3ccccc3)C2)c1 (centres undefined)"
recorded_value = 951

[[record]]
compound = "CCN1CCN(CC2CCN(S(=O)(=O)Cc3c(F)cccc3Cl)CC2)CC1"
recorded_value = 611

[[record]]
compound = "CN(C)C(=O)C1CCN(S(=O)(=O)Cc2ccc(Cl)cc2)CC1"
recorded_value = 746

[[record]]
compound = "Cc1ccc(-n2nnnc2CNC(=O)Nc2ccc(Cl)c(Cl)c2)cc1C"
recorded_value = 944

